Where do the numbers come from? From patent US20210147523A1.

Recorded pEC50 values for a group of binders are listed next.
- target: T1, mouse SPNS2 (mouse, UniProt Q91VM4 1-549)
- T1 construct: on Flp-in 293 cells that also express human SphK1
- T1 sequence: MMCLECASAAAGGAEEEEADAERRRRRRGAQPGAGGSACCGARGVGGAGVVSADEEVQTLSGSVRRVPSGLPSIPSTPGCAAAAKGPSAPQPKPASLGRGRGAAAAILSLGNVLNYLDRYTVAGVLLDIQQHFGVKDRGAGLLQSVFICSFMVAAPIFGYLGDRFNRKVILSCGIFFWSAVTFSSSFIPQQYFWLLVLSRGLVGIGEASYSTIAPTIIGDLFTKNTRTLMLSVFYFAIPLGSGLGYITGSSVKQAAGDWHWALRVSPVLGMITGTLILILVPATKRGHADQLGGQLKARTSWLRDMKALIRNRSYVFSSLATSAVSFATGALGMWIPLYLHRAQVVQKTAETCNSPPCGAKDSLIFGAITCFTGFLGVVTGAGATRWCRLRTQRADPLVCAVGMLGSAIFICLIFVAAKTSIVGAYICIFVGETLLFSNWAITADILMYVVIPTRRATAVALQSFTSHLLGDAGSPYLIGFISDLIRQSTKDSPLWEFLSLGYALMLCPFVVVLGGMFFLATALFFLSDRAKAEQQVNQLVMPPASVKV
- method description: Cell ELISA
- Experimental: Human and mouse SPNS2 and human SphK1 double stable expression Flp-in 293 cells were added to a poly D lysine coat 96-well plate (Corning, 356461) in a density of 1×10⁵ cells/well and was cultivated overnight, and then the culture medium was removed. […] After 20 minutes, 2N sulfuric acid was added to each well (100 μL), and absorbance at 450 nm and 550 nm was measured. […]
value kind: pEC50

binder="89-1207D (antibody, IgG2b, V domains shown) VH: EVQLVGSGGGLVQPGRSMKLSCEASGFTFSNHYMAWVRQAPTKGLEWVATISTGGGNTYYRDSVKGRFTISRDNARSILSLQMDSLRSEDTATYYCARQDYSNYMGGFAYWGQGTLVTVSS VL: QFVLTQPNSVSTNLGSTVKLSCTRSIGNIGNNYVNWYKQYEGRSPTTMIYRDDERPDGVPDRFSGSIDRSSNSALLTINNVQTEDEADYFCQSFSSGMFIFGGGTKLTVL" meas_value="7.72 pEC50 (M)"
binder="82-1109A (antibody, IgG2b, V domains shown) VH: QVQLQQSGVELAKPGSSVKISCKASGNTFTSNYITWIKQTPGQGLEYIGYINTGSGKTYYNEKFKGKATLTADKSSSTAFMQLSSLTPDDSAVYFCASLTGVDYFDDWGQGVMVTVSS VL: DDIVLTQSPALAPSLGQRATISCRASQSVRMSGYNLMHWYQQKPGQQPKLLIYDASKLASGIPARFSGSGSGTDFTLTIDPVQSDDIATYYCQQSKDDPYTFGAGTKLELRR" meas_value="7.83 pEC50 (M)"
binder="18-0211B (antibody, IgG2b, V domains shown) VH: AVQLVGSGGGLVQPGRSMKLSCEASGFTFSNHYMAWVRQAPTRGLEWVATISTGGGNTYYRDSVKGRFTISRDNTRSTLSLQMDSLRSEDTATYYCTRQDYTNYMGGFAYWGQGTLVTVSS VL: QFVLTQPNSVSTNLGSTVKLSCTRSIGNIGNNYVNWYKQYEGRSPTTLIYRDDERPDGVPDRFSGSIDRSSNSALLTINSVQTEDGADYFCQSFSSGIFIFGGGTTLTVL" meas_value="8.37 pEC50 (M)"
binder="93-1310F (antibody, IgG2b, V domains shown) VH: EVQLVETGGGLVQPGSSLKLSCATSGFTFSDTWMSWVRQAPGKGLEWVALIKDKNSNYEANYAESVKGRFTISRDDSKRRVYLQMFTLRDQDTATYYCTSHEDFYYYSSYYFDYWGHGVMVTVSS VL: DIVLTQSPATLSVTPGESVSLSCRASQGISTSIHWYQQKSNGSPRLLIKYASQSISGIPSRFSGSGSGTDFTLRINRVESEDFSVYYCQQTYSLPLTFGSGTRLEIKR" meas_value="8.29 pEC50 (M)"
binder="65-0810G (antibody, IgG2b, V domains shown) VH: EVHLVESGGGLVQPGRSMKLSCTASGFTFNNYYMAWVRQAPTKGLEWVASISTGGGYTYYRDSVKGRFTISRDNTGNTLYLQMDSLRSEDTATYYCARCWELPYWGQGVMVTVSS VL: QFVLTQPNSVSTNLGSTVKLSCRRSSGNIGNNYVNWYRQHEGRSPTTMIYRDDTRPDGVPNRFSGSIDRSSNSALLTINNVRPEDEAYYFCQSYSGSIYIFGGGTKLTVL" meas_value="8.15 pEC50 (M)"
